Data credit: patent US20190343828A1

Entries and their pIC50 values follow.
# Tested on: multiple myeloma cells (MM.1R)
# Method description: In vitro cytotoxicity, CellTiter-Glo 96 h, MM.1R
# Applied conditions: read-out: Cytotoxic potency (IC50 class), MM.1R
pIC50: −log10 of the molar value.

| Molecule | pIC50 |
| --- | --- |
| CC[C@@]1(O)C(=O)OCc2c1cc1n(c2=O)Cc2cc3cc4c(cc3nc2-1)OCO4 | 8.00 to 9.00 |
| CC[C@@]1(O)C(=O)OCc2c1cc1n(c2=O)Cc2c-1nc1cc3c(cc1c2C1CC1)OCO3 | 9.00 to 10.00 |
| CC[C@@]1(O)C(=O)OCc2c1cc1n(c2=O)Cc2c-1nc1cc3c(cc1c2CNc1ccccc1)OCO3 | 8.00 to 9.00 |
| CC[C@@]1(O)C(=O)OCc2c1cc1n(c2=O)Cc2c-1nc1cc3c(cc1c2CNCc1ccc(N)cc1)OCO3 | 8.00 to 9.00 |
| CC[C@@]1(O)C(=O)OCc2c1cc1n(c2=O)Cc2c-1nc1cc3c(cc1c2CNC)OCO3 | 8.00 to 9.00 |
| CC[C@@]1(O)C(=O)OCc2c1cc1n(c2=O)Cc2c-1nc1cc(F)c(C)c3c1c2[C@@H](N)CC3 | 8.00 to 9.00 |
| CC[C@@]1(O)C(=O)OCc2c1cc1n(c2=O)Cc2c-1nc1cc3c(cc1c2CN(C)C(=O)CN)OCO3 | 7.00 to 8.00 |
| CCc1c2c(nc3cc4c(cc13)OCO4)-c1cc3c(c(=O)n1C2)COC(=O)[C@]3(O)CC | 9.00 to 10.00 |
| CC[C@@]1(O)C(=O)OCc2c1cc1n(c2=O)Cc2c-1nc1cc3c(cc1c2CNC1CCCCC1)OCO3 | 8.00 to 9.00 |
| CC[C@@]1(O)C(=O)OCc2c1cc1n(c2=O)Cc2c-1nc1cc3c(cc1c2CO)OCO3 | 8.00 to 9.00 |
| CC[C@@]1(O)C(=O)OCc2c1cc1n(c2=O)Cc2c-1nc1cc3c(cc1c2CNCCc1ccccc1)OCO3 | 8.00 to 9.00 |
| CCCCCc1c2c(nc3cc4c(cc13)OCO4)-c1cc3c(c(=O)n1C2)COC(=O)[C@]3(O)CC | 8.00 to 9.00 |
| CC[C@@]1(O)C(=O)OCc2c1cc1n(c2=O)Cc2c-1nc1cc3c(cc1c2CNCCCCO)OCO3 | 8.00 to 9.00 |
| CC[C@@]1(O)C(=O)OCc2c1cc1n(c2=O)Cc2c-1nc1cc3c(cc1c2CNc1ccc(F)cc1)OCO3 | 8.00 to 9.00 |
| CCC(C)c1c2c(nc3cc4c(cc13)OCO4)-c1cc3c(c(=O)n1C2)COC(=O)[C@]3(O)CC (stereo partly drawn) | 8.00 to 9.00 |
